Hey, just so you know, these numbers are from patent US6737383B1.

system: crabgrass; experiment: Test B pre/postemergence crabgrass; format: in vivo, Digitaria sanguinalis; conditions: Rate 125 g/ha; Preemergence; scale of 0 to 10 where 0 is no effect and 10 is complete control
measuredEndpoint: Crabgrass plant response rating

INSERT INTO measurements (compound, result) VALUES
  ('CC(C)N(C(=O)n1oc(=O)n(CC(C)(C)C)c1=O)c1ccccc1 [Compound 276]', 4),
  ('Cc1noc(C)c1Cn1c(=O)on(C(=O)N(c2ccc(F)cc2)C(C)C)c1=O [Compound 259]', 4),
  ('CC(C)N(C(=O)n1oc(=O)n(CCc2ccccc2)c1=O)c1ccc(F)cc1 [Compound 250]', 4),
  ('CCN(C(=O)n1oc(=O)n(C)c1=O)C1CCCCC1 [Compound 228]', 0);
